experiment: small molecules captured by biotinylated probe aFGF10 – biochemical, small-molecule microarray, fluorescence 635/667, stem cell growth factor project, primary screen (AID 1071);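 also: score merges 667 nm spot intensity and signal to noise from triplicate slides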
condition.context: higher = more signal; small-molecule microarray, probe aFGF10, fluorescence unless noted
reported.metric: composite z-score
Give bare numbers.

Example entries begin here.
{"compound": "COC(=O)[C@H]1[C@@H](O)[C@@]2(O)c3c(OC)cc(OC)cc3O[C@@]2(c2ccc(OC)cc2)[C@@H]1c1ccccc1", "composite z-score": 0.52}
{"compound": "COC(=O)NCC=Cc1nc(CCC=CC(=O)O[C@H]2CC3CC(=O)O[C@@H](C=CCC(C)C)C[C@@H]4CC[C@H](C)[C@@H](C[C@@H](OC)C[C@H](C2)O3)O4)co1", "composite z-score": -0.328}

# return composite z-score for each item in the list
1. CCOC(=O)[C@H]1CC=C2C(=O)Oc3ccccc3[C@@H]21
2. CCCC=C(CCC)[C@@H](NP(=O)(c1ccccc1)c1ccccc1)c1ccccc1
3. CN1CCC(c2ccc(CO)cc2)=CC1C1CC1 (centres undefined)

1. -0.491
2. 0.33
3. -0.301

----------
experiment: JC-1 mitochondrial signal, unstimulated HepG2 cells – cell-based, JC-1 fluorescence, 24 h, 100 nL compound, profiling panel (AID 1167); also: test concentration not given here
condition.context: HepG2 mitochondrial potential, higher = more signal
reported.metric: z-score

{"compound": "CCCc1cc2c(n1Cc1ccc(C)cc1)C(C)C1CN(C(=O)c3ccccc3)C(C)(C(=O)OC)C21 (centres undefined)", "z-score": 2.34}
{"compound": "COC(=O)[C@H]1[C@@H](O)[C@@]2(O)c3c(OC)cc(OC)cc3O[C@@]2(c2ccc(OC)cc2)[C@@H]1c1ccccc1", "z-score": -2.69}
{"compound": "CCOC(=O)[C@H]1CC=C2C(=O)Oc3ccccc3[C@@H]21", "z-score": -0.417}

Consider the additional compound presented here.
Give z-score for the following compound: c1ccc(-c2cc3c(nc2-c2ccccc2)CCNC3)cc1
0.506

----------
experiment: forskolin-driven CRE-LacZ activity in PC12 – cell-based, CRE-LacZ reporter, forskolin-stimulated, primary screen (AID 1146);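 also: PC12 cells with 6xCRE LacZ reporter stimulated by forskolin 10 µM; beta-galactosidase reporter signal reflecting CREB driven transcription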
condition.context: luminescence, 4.5 h; higher = more signal, called active from +8 up or from −8 down unless noted
The source made the active and inactive calls.
reported.metric: z-score

Example entries begin here.
{"compound": "C[C@H]1O[C@H]2C3=C(C(=O)[C@@H]4O[C@@H]4[C@@H]3O)[C@@H]1[C@@H]1[C@@H](C)OC=C3[C@@H](O)[C@H]4O[C@H]4C(=O)[C@]312", "z-score": "1.76 (inactive)"}
{"compound": "COC(=O)NCC=Cc1nc(CCC=CC(=O)O[C@H]2CC3CC(=O)O[C@@H](C=CCC(C)C)C[C@@H]4CC[C@H](C)[C@@H](C[C@@H](OC)C[C@H](C2)O3)O4)co1", "z-score": "-1.96 (inactive)"}
{"compound": "CN1CCC(c2ccc(CO)cc2)=CC1c1cccs1 (centres undefined)", "z-score": "0.158 (inactive)"}

Consider the additional compound presented here.
Give z-score for the following compound: CCOC(=O)[C@H]1CC=C2C(=O)Oc3ccccc3[C@@H]21
1.7 (inactive)

----------
experiment: compounds binding Alexa647 anti-His antibody – biochemical, small-molecule microarray, 635 nm fluorescence, artefact control for SMM control protein annotation, primary screen (AID 1128);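 also: score merges feature fluorescence with signal-to-noise for each printed compound spot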
condition.context: higher = more signal
reported.metric: composite z-score
Numbers only.

{"molecule": "c1ccc(-c2cc3c(nc2-c2ccccc2)CCNC3)cc1", "composite z-score": -0.0778}

# return composite z-score for each item in the list
1. COC(=O)[C@@]1(Cc2ccccc2)[C@H]2c3cc(C(=O)N(C)C)n(C)c3C[C@H]2CN1C(=O)c1ccccc1
2. COC(=O)C1(C)C=C2C(=C(C)C(=O)C2C)CN1 (configuration not stated)

[1.18, 0.207]

----------
Task for the reader: assign each of the following compounds its reported z-score.
experiment: plasmodial surface anion channel blockers, osmotic lysis – cell-based, P. falciparum Indochina, OD700, 18 h, primary screen (AID 1157)
condition.context: P. falciparum Indochina infected erythrocytes, osmotic lysis OD700, 18 h; higher = more signal, called active from +8 up or from −8 down unless noted
Activity calls are given as the source filed them.

{"compound": "C[C@@H]1Cc2c(cnc3c2CN(C)CC3)CO1", "z-score": "0.0517 (inactive)"}

# return z-score for each item in the list
1. COC(=O)[C@@]1(Cc2ccccc2)[C@H]2c3cc(C(=O)N(C)C)n(C)c3C[C@H]2CN1C(=O)c1ccccc1
2. COC(=O)[C@H]1C(=O)c2ccccc2O[C@@](C(=O)OC)(c2ccccc2)[C@@H]1c1ccccc1
3. CCCc1cc2c(n1Cc1ccc(C)cc1)C(C)C1CN(C(=O)c3ccccc3)C(C)(C(=O)OC)C21 (stereo unspecified)
4. CN1CCc2nc(CO)c(CO)cc2C1
5. C=C(CC1(C(C)NP(=O)(c2ccccc2)c2ccccc2)CC1)c1ccccc1 (stereo unspecified)
6. COC(=O)C1(C)C=C2C(=C(C)C(=O)C2C)CN1 (stereo unspecified)
7. C[C@@H]1OC=C2[C@@H](O)[C@H]3O[C@H]3C(=O)[C@]23[C@H]1[C@H]1C2=C([C@@H](O)[C@H]4O[C@H]4C2=O)[C@@H]3O[C@@H]1C
8. COC(=O)[C@@]1(Cc2ccc(F)cc2)[C@H]2c3cc(C(=O)N(C)C)[nH]c3C[C@H]2CN1C(=O)c1ccccc1

["0.617 (inactive)", "-0.56 (inactive)", "-1.81 (inactive)", "0.101 (inactive)", "1.03 (inactive)", "0.643 (inactive)", "0.0502 (inactive)", "0.641 [setting not given] (inactive)"]

# return z-score for each item in the list
1. C[C@H]1O[C@H]2C3=C(C(=O)[C@@H]4O[C@@H]4[C@@H]3O)[C@@H]1[C@@H]1[C@@H](C)OC=C3[C@@H](O)[C@H]4O[C@H]4C(=O)[C@]312
2. COC(=O)[C@H]1[C@@H](O)[C@@]2(O)c3c(OC)cc(OC)cc3O[C@@]2(c2ccc(OC)cc2)[C@@H]1c1ccccc1

-0.987 (inactive)
-0.219 (inactive)

----------
target.or.test.system: Pro-neuregulin-1, membrane-bound isoform (Homo sapiens)
experiment: small molecules binding neuregulin-1 protein – biochemical, small-molecule microarray, fluorescence 635/667, psychiatric disease protein project, primary screen (AID 1075);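 also: score combines 667 nm spot fluorescence with signal to noise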
condition.context: NRG1 binding, 635 nm fluorescence, higher = more signal
Task for the reader: assign each of the following compounds its reported composite z-score.
Numbers only.

{"compound": "CN1CCc2nc(CO)c(CO)cc2C1", "composite z-score": 0.0016}
{"compound": "COC(=O)[C@@]1(Cc2ccc(F)cc2)[C@H]2c3cc(C(=O)N(C)C)[nH]c3C[C@H]2CN1C(=O)c1ccccc1", "composite z-score": 0.986}
{"compound": "CCCc1cc2c(n1Cc1ccc(C)cc1)C(C)C1CN(C(=O)c3ccccc3)C(C)(C(=O)OC)C21 (centres undefined)", "composite z-score": 1.32}

# return composite z-score for each item in the list
1. CN1CCC(c2ccc(CO)cc2)=CC1C1CC1 (centres undefined)
2. CCCc1cc2c(n1Cc1cccc(Cl)c1)C(C)C1CN(C(=O)c3ccccc3)C(C)(C(=O)OC)C21 (centres undefined)

1: -0.292; 2: 1.92

# return composite z-score for each item in the list
1. O=P(c1ccccc1)(c1ccccc1)N1CC2(CC2)CC(O)(c2ccccc2)C1 (centres undefined)
2. CCCC=C(CCC)[C@@H](NP(=O)(c1ccccc1)c1ccccc1)c1ccccc1
3. CN1CCC(c2ccc(CO)cc2)=CC1c1cccs1 (centres undefined)

1. 0.963
2. -0.0154
3. 0.0188

# return composite z-score for each item in the list
1. COc1cc2c(cc1O)C=[N+](C)CC2
2. CCCc1cc2c(n1CCO)C(C)C1CN(C(=O)c3ccccc3)C(C)(C(=O)OC)C21 (centres undefined)

[-0.835, 1.21]

# return composite z-score for each item in the list
1. COC(=O)[C@@]1(Cc2ccccc2)[C@H]2c3cc(C(=O)N(C)C)n(C)c3C[C@H]2CN1C(=O)c1ccccc1
2. C[C@@H]1Cc2c(cnc3c2CN(C)CC3)CO1
3. CCCc1cc2c(n1Cc1ccco1)C(C)C1CN(C(=O)c3ccccc3)C(C)(C(=O)OC)C21 (centres undefined)
4. C[C@@H]1OC=C2[C@@H](O)[C@H]3O[C@H]3C(=O)[C@]23[C@H]1[C@H]1C2=C([C@@H](O)[C@H]4O[C@H]4C2=O)[C@@H]3O[C@@H]1C

[2.02, -0.93, 1.35, -0.854]

# return composite z-score for each item in the list
1. COC(=O)[C@H]1C(=O)c2ccccc2O[C@@](C(=O)OC)(c2ccccc2)[C@@H]1c1ccccc1
2. CCOC(=O)[C@H]1CC=C2C(=O)Oc3ccccc3[C@@H]21
3. COC(=O)[C@H]1[C@@H](O)[C@@]2(O)c3c(OC)cc(OC)cc3O[C@@]2(c2ccc(OC)cc2)[C@@H]1c1ccccc1
4. COC(=O)C1(C)C=C2C(=C(C)C(=O)C2C)CN1 (centres undefined)
5. COC(=O)[C@@]1(Cc2ccccc2)[C@H]2c3cc(C(=O)N(C)C)[nH]c3C[C@H]2CN1C(=O)c1ccccc1

1. -0.454
2. 0.833
3. 0.167
4. 0.367
5. 1.03
